# System name: membrane-bound tissue factor (TF) on cells (human, UniProt P13726 33-295); further: test concentration or dose not given here
# Method notes: cell-based or functional assay
Quantity name: % kill, BxPC3 cells, anti-kappa-ETA' assay

[[record]]
binder = "Anti-TF HuMab 011 (antibody, IgG1, V domains shown, full length, fully human monoclonal IgG1,kappa; also called HuMab-TF-011) VH: EVQLLESGGGLVQPGGSLRLSCAASGFTFSNYAMSWVRQAPGKGLEWVSSISGSGDYTYYTDSVKGRFTISRDNSKNTLYLQMNSLRAEDTAVYYCARSPWGYYLDSWGQGTLVTVSS VL: DIQMTQSPPSLSASAGDRVTITCRASQGISSRLAWYQQKPEKAPKSLIYAASSLQSGVPSRFSGSGSGTDFTLTISSLQPEDFATYYCQQYNSYPYTFGQGTKLEIK"
result = "98%"

[[record]]
binder = "HuMab-TF-013 (antibody, V domains shown) VH: EVQLVQSGAEVKKPGESLKISCKGSGYSFTSYWIGWVRQMPGKGLEWMGIIYPGDSDTRYSPSFQGQVTISADKSISTAYLQWSSLKASDTAMYYCARIHRGAGYSSSWPGAFDIWGQGTMVTVSS VL: DIQMTQSPSSLSASVGDRVTITCRASQGISRWLAWYQQKPEKAPKSLIYAASSLQSGVPSRFSGSGSGTDFTLTISSLQPEDFATYYCQQYDSDPITFGQGTRLEIK"
result = "96%"


// data source = patent US20240294661A1
